Target: T1, human CD71 extracellular domain (human, UniProt P02786 89-760)
T1 construct: also called hCD71; CD71-ECD
T1 sequence (P02786 89-760): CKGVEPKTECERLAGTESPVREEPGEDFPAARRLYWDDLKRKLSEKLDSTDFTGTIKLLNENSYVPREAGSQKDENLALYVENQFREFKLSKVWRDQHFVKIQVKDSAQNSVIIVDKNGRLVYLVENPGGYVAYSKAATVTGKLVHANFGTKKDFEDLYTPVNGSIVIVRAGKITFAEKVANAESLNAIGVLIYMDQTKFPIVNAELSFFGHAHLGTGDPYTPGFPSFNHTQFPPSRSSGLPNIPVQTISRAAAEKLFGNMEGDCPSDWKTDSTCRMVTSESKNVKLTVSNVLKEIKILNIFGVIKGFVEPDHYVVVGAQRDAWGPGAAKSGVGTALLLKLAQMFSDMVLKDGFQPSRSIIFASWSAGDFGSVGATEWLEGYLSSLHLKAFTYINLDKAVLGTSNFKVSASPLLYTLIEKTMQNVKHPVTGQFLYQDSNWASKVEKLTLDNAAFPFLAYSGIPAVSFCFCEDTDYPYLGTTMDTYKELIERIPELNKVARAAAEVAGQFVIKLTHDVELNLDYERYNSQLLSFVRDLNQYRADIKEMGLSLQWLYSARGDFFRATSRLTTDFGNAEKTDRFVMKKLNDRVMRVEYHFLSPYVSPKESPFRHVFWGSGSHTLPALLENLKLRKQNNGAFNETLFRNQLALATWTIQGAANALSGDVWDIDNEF
Experiment: primary ELISA; signal over HSA control
Quantity Name: hCD71:HSA (ratio)

Binder | Quantity Name | Readout Value
CD71-binding FN3 domain SEQ ID NO 378 (designed binder) MLPAPKNLVVSRVTEDSARLSWTAPDAAFDSFFIGYLEPQPPGEAIDLWVPGSERSYDLTGLKPGTEYNVTIQGVKGGFPSTPLIATVTT | hCD71:HSA | 76
CD71-binding FN3 domain SEQ ID NO 425 (designed binder) MLPAPKNLVVSRVTEDSARLSWTAPDAAFDSFFIGYLEPQPPGEAIGLLVPGSERSYDLTGLKPGTEYNVTIQGVKGGFPSNPLSAIFTT | hCD71:HSA | 247
CD71-binding FN3 domain SEQ ID NO 387 (designed binder) MLPAPKNLVVSRVTEDSARLSWTAPDAAFDSFFIGYLEPQPPGEAIHLVVPGSERSYDLTGLKPGTEYNVTIQGVKGGFPSDPLYAWFTT | hCD71:HSA | 203
CD71-binding FN3 domain SEQ ID NO 438 (designed binder) MLPAPKNLVVSRVTEDSARLSWTAPDAAFDSFFIGYLEPQPPGEAIDLWVPGSERSYDLTGLKPGTEYNVTIQGVKGGFPSYPLLAIFTT | hCD71:HSA | 143
